Test system: NCI-H146 cells (human small-cell lung cancer cell lines)
Assay: Cell-growth inhibition test: NCI-H146 cells
Assay type: cell-based
Settings: Homo sapiens, NCI-H146, read-out: Cell-Growth Inhibition Test: NCI-H146 Cells IC50 (nM)
Protocol: Under the following conditions, an in vitro cell-growth inhibition test was performed with respect to HEL cells (human acute myelocytic leukemia cell lines), NCI-H1417 cells (human small-cell lung cancer cell lines), and NCI-H146 cells (human small-cell lung cancer cell lines). […]
recorded endpoint: IC50 (nM)

| compound | recorded endpoint | result units | recorded value |
| --- | --- | --- | --- |
| CCC(O)(CC)Cn1nnc2cc(-c3ccc(C(=O)N4[C@@H]5CC[C@H]4C[C@@H](N)C5)cc3-c3ccc(C#N)c(F)c3)c(F)c(F)c21 | IC50 | nM | 5.02 |
| CC(C)(O)Cn1ncc2cc(-c3ccc(C(=O)N4[C@@H]5CC[C@H]4C[C@@H](N)C5)cc3-c3ccc(C#N)c(F)c3)c(F)c(F)c21 | IC50 | nM | 1.58 |
| Cn1ccc2cc(-c3ccc(C(=O)N4[C@@H]5CC[C@H]4C[C@@H](N)C5)cc3-c3ccc(C#N)c(F)c3)c(F)cc21 | IC50 | nM | 1.39 |
| N#Cc1ccc(-c2cc(C(=O)N3C4CCC3C(N)C4)ccc2-c2cc3nnn(CC4(O)CCC4)c3c(Cl)c2F)cc1F (stereo not drawn) | IC50 | nM | 0.39 |
| CC(C)(O)Cn1nnc2cc(-c3ccc(C(=O)N4[C@@H]5CC[C@H]4C[C@@H](N)C5)cc3-c3ccc(C#N)c(F)c3)c(F)c(C(F)F)c21 | IC50 | nM | 9.3 |
| CC(C)(O)Cn1nnc2cc(-c3ccc(C(=O)N4[C@@H]5CC[C@H]4C[C@@H](N)C5)cc3-c3ccc(C#N)c(F)c3)c(F)c(F)c21 | IC50 | nM | 1.09 |

Ref: patent US11479563B2
